Would you mind telling me the reported MTT Assay (Viability) 4 h d-U937, percentage loss of cell viability of each entry?
Tested on: Differentiated U937 cells
Test: Cell viability MTT assay
Assay type: cell-based, human
Settings: 4 hr in 5% FCS; negative = apparent increase in viability
Number in %, nothing else.

Record summary for `COCC(=O)Nc1cc(Oc2ccc(NC(=O)Nc3cc(C(C)(C)C)nn3-c3ccc(C)cc3)cc2Br)ccn1` : reported MTT Assay (Viability) 4 h d-U937, percentage loss of cell viability = −12.6

Record summary for `COc1ccc(-n2nc(C(C)(C)C)cc2NC(=O)Nc2ccc(Oc3ccnc(NC(=O)N4CCCC4(C)C)c3)c(Cl)c2Cl)cc1` : reported MTT Assay (Viability) 4 h d-U937, percentage loss of cell viability = −5.1

Record summary for `CNC(=O)Nc1cc(COc2ccc(NC(=O)Nc3cc(C(C)(C)C)nn3-c3ccc(C)cc3)c3cccnc23)ccn1` : reported MTT Assay (Viability) 4 h d-U937, percentage loss of cell viability = 14.5

Record summary for `COCC(=O)Nc1cc(Oc2ccc(NC(=O)Nc3cc(C(C)(C)C)nn3-c3ccc(C)cc3)c(Cl)c2Cl)ccn1` : reported MTT Assay (Viability) 4 h d-U937, percentage loss of cell viability = −11.2

Record summary for `CNC(=O)Nc1cc(Oc2ccc(NC(=O)Nc3cc(C(C)(C)C)nn3-c3ccc(O)cc3)c(Cl)c2Cl)ccn1` : reported MTT Assay (Viability) 4 h d-U937, percentage loss of cell viability = −17.3

Record summary for `CC(C)(C)c1cc(NC(=O)Nc2ccc(Oc3ccnc(NC(=O)NC4CC4)c3)c(Cl)c2Cl)n(-c2ccc(CO)cc2)n1` : reported MTT Assay (Viability) 4 h d-U937, percentage loss of cell viability = −15.0

Record summary for `COCCNC(=O)Nc1cc(Oc2ccc(NC(=O)Nc3cc(C(C)(C)C)nn3-c3ccc(OC)cc3)c(Cl)c2Cl)ccn1` : reported MTT Assay (Viability) 4 h d-U937, percentage loss of cell viability = −11.4

Record summary for `COc1ccc(-n2nc(C(C)(C)C)cc2NC(=O)Nc2ccc(Oc3ccnc(NC(=O)CN4CCOCC4)c3)c(Cl)c2Cl)cc1` : reported MTT Assay (Viability) 4 h d-U937, percentage loss of cell viability = −4.8

Record summary for `COCC(=O)Nc1cc(Oc2ccc(NC(=O)Nc3cc(C(C)(C)C)nn3-c3ccc(C)cc3)c(C(F)(F)F)c2)ccn1` : reported MTT Assay (Viability) 4 h d-U937, percentage loss of cell viability = 3.4

Record summary for `CNC(=O)Nc1nccc(Oc2ccc(NC(=O)Nc3cc(C(C)(C)C)nn3-c3ccc(CO)cc3)c(Cl)c2Cl)n1` : reported MTT Assay (Viability) 4 h d-U937, percentage loss of cell viability = −3.5

Record summary for `CCNC(=O)Nc1cc(Oc2ccc(NC(=O)Nc3cc(C(C)(C)C)nn3-c3ccc(OC)cc3)c(Cl)c2Cl)ccn1` : reported MTT Assay (Viability) 4 h d-U937, percentage loss of cell viability = 5.0

Record summary for `CN(C)CCCC(=O)Nc1cc(Oc2ccc(NC(=O)Nc3cc(C(C)(C)C)nn3-c3ccc(CO)cc3)c(Cl)c2Cl)ccn1` : reported MTT Assay (Viability) 4 h d-U937, percentage loss of cell viability = −42.5

Record summary for `COCC(=O)Nc1cc(Oc2ccc(NC(=O)Nc3cc(C(C)(C)C)nn3-c3ccc(C)cc3)c(Cl)c2F)ccn1` : reported MTT Assay (Viability) 4 h d-U937, percentage loss of cell viability = −0.2

Record summary for `CC(C)(C)c1cc(NC(=O)Nc2ccc(Oc3ccnc(NC(=O)NCCN4CCOCC4)c3)c(Cl)c2Cl)n(-c2ccc(CO)cc2)n1` : reported MTT Assay (Viability) 4 h d-U937, percentage loss of cell viability = −20.5

Record summary for `COc1cc(-n2nc(C(C)(C)C)cc2NC(=O)Nc2ccc(Oc3ccnc(NC(=O)N4CC[C@H](N(C)C)C4)c3)c(Cl)c2Cl)ccc1CO` : reported MTT Assay (Viability) 4 h d-U937, percentage loss of cell viability = 3.2

Record summary for `COCC(=O)Nc1cc(Oc2ccc(NC(=O)Nc3cc(C(C)(C)C)nn3-c3ccc(CO)cc3)c(Cl)c2Cl)ncn1` : reported MTT Assay (Viability) 4 h d-U937, percentage loss of cell viability = −1.4

Record summary for `COCC(=O)Nc1cc(Oc2ccc(NC(=O)Nc3cc(C(C)(C)C)nn3-c3ccc(C)cc3)c3cccnc23)ccn1` : reported MTT Assay (Viability) 4 h d-U937, percentage loss of cell viability = −21.3

Record summary for `CNC(=O)Nc1cc(Oc2ccc(NC(=O)Nc3cc(C(C)(C)C)nn3-c3ccc(CO)c(Cl)c3)c(Cl)c2Cl)ccn1` : reported MTT Assay (Viability) 4 h d-U937, percentage loss of cell viability = −34.9

Record summary for `COCC(=O)Nc1cc(Oc2ccc(NC(=O)Nc3cc(C(C)(C)C)nn3-c3ccc(C)cc3)c(S(C)(=O)=O)c2)ccn1` : reported MTT Assay (Viability) 4 h d-U937, percentage loss of cell viability = −3.1

Record summary for `CNC(=O)Nc1cc(Oc2ccc(NC(=O)Nc3cc(C(C)(C)C)nn3-c3ccc(C)cc3)c3ncccc23)ccn1` : reported MTT Assay (Viability) 4 h d-U937, percentage loss of cell viability = −25.5

Record summary for `COCC(=O)Nc1cc(Oc2ccc(NC(=O)Nc3cc(C(C)(C)C)nn3-c3ccc(OC)cc3)c(Cl)c2Cl)ccn1` : reported MTT Assay (Viability) 4 h d-U937, percentage loss of cell viability = −25.9

Record summary for `COCC(=O)Nc1cc(CSc2ccc(NC(=O)Nc3cc(C(C)(C)C)nn3-c3ccc(OC)cc3)c(Cl)c2Cl)ccn1` : reported MTT Assay (Viability) 4 h d-U937, percentage loss of cell viability = 10.5

Record summary for `CC(C)(C)c1cc(NC(=O)Nc2ccc(Oc3ccnc(NC(=O)N4CCCC4)c3)c(Cl)c2Cl)n(-c2ccc(O)cc2)n1` : reported MTT Assay (Viability) 4 h d-U937, percentage loss of cell viability = −33.7

Record summary for `COCC(=O)Nc1cc(Oc2ccc(NC(=O)Nc3cc(C(C)(C)C)nn3-c3ccc(C)cc3)cc2C#N)ccn1` : reported MTT Assay (Viability) 4 h d-U937, percentage loss of cell viability = −3.8

Record summary for `COCC(=O)Nc1nccc(Oc2ccc(NC(=O)Nc3cc(C(C)(C)C)nn3-c3ccc(CO)cc3)c(Cl)c2Cl)n1` : reported MTT Assay (Viability) 4 h d-U937, percentage loss of cell viability = 2.3

Record summary for `CC(C)(C)c1cc(NC(=O)Nc2ccc(Oc3ccnc(NC(=O)CN4CCOCC4)c3)c(Cl)c2Cl)n(-c2ccc(CO)cc2)n1` : reported MTT Assay (Viability) 4 h d-U937, percentage loss of cell viability = 12.5

Record summary for `CNCC(=O)Nc1cc(Oc2ccc(NC(=O)Nc3cc(C(C)(C)C)nn3-c3ccc(OC)cc3)c(Cl)c2Cl)ccn1` : reported MTT Assay (Viability) 4 h d-U937, percentage loss of cell viability = −4.4

Cited source for all entries: patent US10000471B2
